Consider the following pIC50 values measured on UniProt P32745.
Sequence (P32745 whole entry): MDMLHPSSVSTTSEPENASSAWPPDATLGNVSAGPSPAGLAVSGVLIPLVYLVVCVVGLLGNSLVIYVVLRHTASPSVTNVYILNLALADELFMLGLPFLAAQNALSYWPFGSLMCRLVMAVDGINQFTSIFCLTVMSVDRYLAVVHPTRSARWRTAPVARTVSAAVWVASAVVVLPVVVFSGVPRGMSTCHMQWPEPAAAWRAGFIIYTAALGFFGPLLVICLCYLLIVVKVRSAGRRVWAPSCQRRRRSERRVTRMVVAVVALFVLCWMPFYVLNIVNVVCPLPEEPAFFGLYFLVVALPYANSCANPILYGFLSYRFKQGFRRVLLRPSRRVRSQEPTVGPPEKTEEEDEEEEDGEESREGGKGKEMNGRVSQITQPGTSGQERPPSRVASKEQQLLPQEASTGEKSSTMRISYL
Positions of bridges follow the written chain, without caps; N, C: chain ends. Non-standard residues stand in square brackets, D forms with d. Residues, ends and D or L forms follow the SMILES beside them. Phe(4-CH2NHiPr) = CC(C)NCc1ccc(C[C@H](N)C(=O)O)cc1
The scale used: pIC50 is minus the common logarithm of the concentration in molar units.

Worked examples follow.
molecule	target_or_system	pIC50
CC(C)NCc1ccc(C[C@@H]2NC(=O)[C@@H](Cc3c[nH]c4ccccc34)NC(=O)[C@H](Cc3ccccc3)NC(=O)[C@@H](NC(=O)[C@@H](N)Cc3ccc(O)cc3)CSSC[C@@H](C(=O)N[C@H](C(N)=O)[C@@H](C)O)NC(=O)[C@H](Cc3ccccc3)NC(=O)[C@H]([C@@H](C)O)NC2=O)cc1 (H-YCF[dW][Phe(4-CH2NHiPr)]TFCT-NH2; disulfide 2-8)	UniProt P32745	7.22
CC(C)NCc1ccc(C[C@@H]2NC(=O)[C@H](N(C)C(=O)c3ccc4ccccc4c3)NC(=O)[C@H](Cc3ccccc3)NC(=O)[C@H](NC(=O)[C@@H](N)Cc3ccc(O)cc3)CSSC[C@@H](C(=O)N[C@@H](Cc3ccc4ccccc4c3)C(N)=O)NC(=O)[C@H](Cc3ccccc3)NC2=O)cc1	UniProt P32745	6.33

Here is another molecule to look at.
Q) Bench note: what pIC50 did CC(C)NCc1ccc(C[C@@H]2NC(=O)[C@@H](Cc3c[nH]c4ccccc34)NC(=O)[C@H](Cc3ccccc3)NC(=O)[C@H](Cc3ccccc3)NC(=O)[C@H](CCCCN)NC(=O)[C@@H](N)CSSC[C@@H](C(=O)O)NC(=O)[C@H](Cc3ccccc3)NC(=O)[C@H]([C@@H](C)O)NC2=O)cc1 (H-CKFF[dW][Phe(4-CH2NHiPr)]TFC-OH; disulfide 1-9) show?
A) 6.10

Reference source: ChEMBL document CHEMBL1151856
